assay: Plasma concentration versus time of Compound I and metabolite Compound III in patients dosed QD or BID with Form B of Compound II plus fulvestrant; assay type: in vivo, human; conditions: human, plasma, oral, 100 mg, 100 mg BID of Form B, Day 1, 10.0 h, Mean; read-out: Compound III Concentration
READOUT_KIND: concentration at 10 h (ng/mL)

>>> df
                                   molecule           readout_kind  unit_label  recorded_measurement
0  O=C1NCC2(CCCCC2)n2c1cc1cnc(Nc3ccc(N4CCNCC4)cn3)nc12 [Compound III]  concentration at 10 h       ng/mL                     0

====

experiment: Noncompartmental pharmacokinetic parameters (Cmax, Tmax, AUC, Racc) in QD and BID cohorts of Form B; assay type: in vivo, human; settings: human, plasma, oral, 200 mg, Compound III; 200 mg QD of Form B; Cohort 1; Day 29; read-out: AUClast (Mean)
READOUT_KIND: AUC(0-t) (ng·h/mL)

In [3]: df
Out[3]:
                                   compound  recorded_measurement
0  O=C1NCC2(CCCCC2)n2c1cc1cnc(Nc3ccc(N4CCNCC4)cn3)nc12 [Compound III]                  27.9

====

assay: Plasma concentration versus time of Compound I and metabolite Compound III in patients dosed QD or BID with Form B of Compound II plus fulvestrant; format: in vivo, human; details: human, plasma, oral, 200 mg, 200 mg QD of Form B, Day 1, 12.0 h, Mean; read-out: Compound I Concentration
READOUT_KIND: concentration at 12 h (ng/mL)

                                   compound  unit_label  recorded_measurement
0  CC(C)N1CCN(c2ccc(Nc3ncc4cc5n(c4n3)C3(CCCCC3)CNC5=O)nc2)CC1 [Compound I]       ng/mL                  6.29

====

test: Noncompartmental pharmacokinetic parameters (Cmax, Tmax, AUC, Racc) in QD and BID cohorts of Form B; type: in vivo, human; settings: human, plasma, oral, 300 mg, Compound III; 300 mg QD of Form B; Cohort 2; Day 1; read-out: Tmax (Median)
READOUT_KIND: Tmax (h)

>>> print(df.to_string())
                         structure_notation  readout_kind  recorded_measurement
0  O=C1NCC2(CCCCC2)n2c1cc1cnc(Nc3ccc(N4CCNCC4)cn3)nc12          Tmax                     4

====

assay: Plasma concentration versus time of Compound I and metabolite Compound III in patients dosed QD or BID with Form B of Compound II plus fulvestrant; assay type: in vivo, human; conditions: human, plasma, oral, 500 mg, 500 mg QD of Form B, Day 1, 12.0 h, Mean; read-out: Compound I Concentration
READOUT_KIND: concentration at 12 h

>>> df
                                   compound  recorded_measurement
0  CC(C)N1CCN(c2ccc(Nc3ncc4cc5n(c4n3)C3(CCCCC3)CNC5=O)nc2)CC1 [Compound I]            27.8 ng/mL

====

experiment: Plasma concentration versus time of Compound I and metabolite Compound III in patients dosed QD or BID with Form B of Compound II plus fulvestrant; assay type: in vivo, human; conditions: human, plasma, oral, 500 mg, Cohort 4, 500 mg QD of Form B, Day 15; read-out: Trough Compound III Concentration, Mean
READOUT_KIND: concentration at 15 day (ng/mL)

                                   molecule             readout_kind  recorded_measurement
0  O=C1NCC2(CCCCC2)n2c1cc1cnc(Nc3ccc(N4CCNCC4)cn3)nc12 [Compound III]  concentration at 15 day                  2.07

====

assay: Noncompartmental pharmacokinetic parameters (Cmax, Tmax, AUC, Racc) in QD and BID cohorts of Form B; format: in vivo, human; details: human, plasma, oral, 150 mg, Compound III; 150 mg BID of Form B; Cohort 7; Day 1; read-out: AUClast (Median)
READOUT_KIND: AUC(0-t) (ng·h/mL)

                         structure_notation  readout_kind  recorded_measurement
0  O=C1NCC2(CCCCC2)n2c1cc1cnc(Nc3ccc(N4CCNCC4)cn3)nc12      AUC(0-t)                  16.3

====

test: Noncompartmental pharmacokinetic parameters (Cmax, Tmax, AUC, Racc) in QD and BID cohorts of Form B; type: in vivo, human; conditions: human, plasma, oral, 200 mg, Cohort 1, 200 mg QD of Form B, Day 1; read-out: AUClast, Mean
READOUT_KIND: AUC(0-t) (ng·h/mL)

>>> df
                         structure_notation  readout_kind  recorded_measurement
0  CC(C)N1CCN(c2ccc(Nc3ncc4cc5n(c4n3)C3(CCCCC3)CNC5=O)nc2)CC1      AUC(0-t)                   215

====

assay: Noncompartmental pharmacokinetic parameters (Cmax, Tmax, AUC, Racc) in QD and BID cohorts of Form B; assay type: in vivo, human; conditions: human, plasma, oral, 150 mg, Compound III; 150 mg BID of Form B; Cohort 7; Day 29; read-out: Tmax (Median)
READOUT_KIND: Tmax

In [3]: df
Out[3]:
                         structure_notation  recorded_measurement
0  O=C1NCC2(CCCCC2)n2c1cc1cnc(Nc3ccc(N4CCNCC4)cn3)nc12                   3 h

====

test: Plasma concentration versus time of Compound I and metabolite Compound III in patients dosed QD or BID with Form B of Compound II plus fulvestrant; format: in vivo, human; conditions: human, plasma, oral, 200 mg, 200 mg BID of Form B, Day 1, 3.0 h, Median; read-out: Compound I Concentration
READOUT_KIND: concentration at 3 h (ng/mL)

In [3]: df
Out[3]:
                         structure_notation  recorded_measurement
0  CC(C)N1CCN(c2ccc(Nc3ncc4cc5n(c4n3)C3(CCCCC3)CNC5=O)nc2)CC1                  14.8

====

test: Plasma concentration versus time of Compound I and metabolite Compound III in patients dosed QD or BID with Form B of Compound II plus fulvestrant; type: in vivo, human; settings: human, plasma, oral, 400 mg, Cohort 3, 400 mg QD of Form B, Day 22; read-out: Trough Compound III Concentration, Max
READOUT_KIND: concentration at 22 day (ng/mL)

>>> df
                                   molecule             readout_kind  recorded_measurement
0  O=C1NCC2(CCCCC2)n2c1cc1cnc(Nc3ccc(N4CCNCC4)cn3)nc12 [Compound III]  concentration at 22 day                 0.935

====

assay: Plasma concentration versus time of Compound I and metabolite Compound III in patients dosed QD or BID with Form B of Compound II plus fulvestrant; assay type: in vivo, human; settings: human, plasma, oral, 100 mg, Cohort 6, 100 mg BID of Form B, Day 15; read-out: Trough Compound I Concentration, Median
READOUT_KIND: concentration at 15 day

                         structure_notation             readout_kind  recorded_measurement
0  CC(C)N1CCN(c2ccc(Nc3ncc4cc5n(c4n3)C3(CCCCC3)CNC5=O)nc2)CC1  concentration at 15 day            6.34 ng/mL

====

test: Plasma concentration versus time of Compound I and metabolite Compound III in patients dosed QD or BID with Form B of Compound II plus fulvestrant; type: in vivo, human; details: human, plasma, oral, 400 mg, 400 mg QD of Form B, Day 29, 6.0 h, Median; read-out: Compound I Concentration
READOUT_KIND: concentration at 6 h (ng/mL)

>>> df
                         structure_notation  recorded_measurement
0  CC(C)N1CCN(c2ccc(Nc3ncc4cc5n(c4n3)C3(CCCCC3)CNC5=O)nc2)CC1                  23.2

====

experiment: Plasma concentration versus time of Compound I and metabolite Compound III in patients dosed QD or BID with Form B of Compound II plus fulvestrant; format: in vivo, human; details: human, plasma, oral, 650 mg, Cohort 5, 650 mg QD of Form B, Day 29, 12.0 h; read-out: Compound I Concentration, Max
READOUT_KIND: concentration at 12 h (ng/mL)

                         structure_notation  unit_label  recorded_measurement
0  CC(C)N1CCN(c2ccc(Nc3ncc4cc5n(c4n3)C3(CCCCC3)CNC5=O)nc2)CC1       ng/mL                  63.2

Where do the numbers come from? From patent US11357779B2.
